# procedure-summary: Pharmacokinetic evaluation in Dog
# Assay type: in vivo
# measurement-conditions: in vivo; Dog, PO 0.15 mg/kg
measurement-name: AUC(0-inf) (ng·h/mL)

>>> df
                                   compound     unit  measured_result
0  Nc1ncn([C@H]2CC(O)[C@@H](CO)S2)c(=O)n1 (stereo partly shown)  ng·h/mL              439

====

# procedure-summary: Pharmacokinetic evaluation in Rat
# Type: in vivo
# measurement-conditions: in vivo; Rat, PO 3 mg/kg
# Experimental: Aza-T-dCyd was administered orally and intravenously at various concentrations to Mice, Rats and Dogs to determine the PK profile.
measurement-name: Cmax (ng/mL)

                                   molecule   unit  measured_result
0  Nc1ncn([C@H]2CC(O)[C@@H](CO)S2)c(=O)n1 (stereo partly shown)  ng/mL              488
